protocol: metabolic stability in liver microsomes
Assay type: in vitro ADME, rat
recorded conditions: rat, +Cofactors, 30 min
value type: Remaining percentage (%)
The answer is to be given in %; state only the numeric part.

Challenge: Query (molecule): O=C(O)CC[C@H](NC(=O)Nc1ccc(C(F)(F)F)cc1)C(=O)O [SSA 2] ; field requested: Remaining percentage
Response given: 97.57

Challenge: Query (molecule): `O=C(O)CC[C@@H](NC(=O)Nc1ccc(C(F)(F)F)cc1)C(=O)O` ; field requested: Remaining percentage
Response given: 97.86

Challenge: Query (molecule): `O=C(O)CC[C@H](NC(=O)Nc1ccc(Br)cc1)C(=O)O` ; field requested: Remaining percentage
Response given: 99.04

Challenge: Query (molecule): O=C(O)CC[C@H](NC(=O)Nc1ccc(C(F)(F)F)cc1)C(=O)O [SSA 1] ; field requested: Remaining percentage
Response given: 96.48

----------
protocol: metabolic stability in liver microsomes
Type: in vitro ADME, rat
recorded conditions: rat, +Cofactors, 60 min
Record form. Attribute: Remaining percentage. Fill in for each entry.
The answer is to be given in %; state only the numeric part.

Challenge: Query (molecule): O=C(O)CC[C@H](NC(=O)Nc1ccc(Br)cc1)C(=O)O [SSA 9] ; field requested: Remaining percentage
Response given: 100.06

Challenge: Query (molecule): O=C(O)CC[C@H](NC(=O)Nc1ccc(C(F)(F)F)cc1)C(=O)O [SSA 1] ; field requested: Remaining percentage
Response given: 95.66

Challenge: Query (molecule): O=C(O)CC[C@H](NC(=O)Nc1ccc(C(F)(F)F)cc1)C(=O)O [SSA 2] ; field requested: Remaining percentage
Response given: 96.64

Challenge: Query (molecule): O=C(O)CC[C@@H](NC(=O)Nc1ccc(C(F)(F)F)cc1)C(=O)O [SSA 3] ; field requested: Remaining percentage
Response given: 98.31

----------
Record form. Attribute: Remaining percentage. Fill in for each entry.
protocol: metabolic stability in liver microsomes
Format: in vitro ADME, rat
recorded conditions: rat, +Cofactors, 15 min
Description: Metabolic stability was assessed in mouse and rat liver microsomes. Microsomes are subcellular fractions of hepatocytes and contain CYP450s, the predominant enzymes involved in first-pass metabolism.[66] […] Samples were analysed using a Shimadzu liquid chromatography system coupled to a Triple Quad 6500+ mass spectrometry (AB Inc.) Separation of compounds was achieved using an HSS T3 column (50 x 2.1 mm) at a temperature of 40 °C and a binary mobile phase gradient […]
The answer is to be given in %; state only the numeric part.

Challenge: Query (compound): `O=C(O)CC[C@H](NC(=O)Nc1ccc(Br)cc1)C(=O)O` ; field requested: Remaining percentage
Response given: 96.49

Challenge: Query (compound): O=C(O)CC[C@H](NC(=O)Nc1ccc(C(F)(F)F)cc1)C(=O)O [SSA 2] ; field requested: Remaining percentage
Response given: 94.28

Challenge: Query (compound): O=C(O)CC[C@H](NC(=O)Nc1ccc(C(F)(F)F)cc1)C(=O)O [SSA 1] ; field requested: Remaining percentage
Response given: 99.83

Challenge: Query (compound): `O=C(O)CC[C@@H](NC(=O)Nc1ccc(C(F)(F)F)cc1)C(=O)O` ; field requested: Remaining percentage
Response given: 99.07

----------
protocol: quantitative (Q) 1H NMR spectroscopy, proportion of SSA becoming NMR silent (higher-order aggregates)
Format: physicochemical
recorded conditions: ~112 mM, DMSO-d6 1.0% DCM
value type: (Q) 1H NMR, proportion NMR silent, cation (%)
The answer is to be given in %; state only the numeric part.

Challenge: Query (compound): `COc1ccc(NC(=O)N[C@@H](CCC(=O)O)C(=O)O)cc1` ; field requested: (Q) 1H NMR, proportion NMR silent, cation
Response given: 0

Challenge: Query (compound): `O=C(O)CC[C@@H](NC(=O)Nc1ccc(C(F)(F)F)cc1)C(=O)O` ; field requested: (Q) 1H NMR, proportion NMR silent, cation
Response given: 0

Challenge: Query (compound): `O=C(O)CC[C@H](NC(=O)Nc1ccc(C(F)(F)F)cc1)C(=O)O` ; field requested: (Q) 1H NMR, proportion NMR silent, cation
Response given: 0

Challenge: Query (compound): `O=C(O)CC[C@H](NC(=O)Nc1ccc(Br)cc1)C(=O)O` ; field requested: (Q) 1H NMR, proportion NMR silent, cation
Response given: 0

Challenge: Query (compound): `COc1ccc(NC(=O)N[C@@H](CC(=O)O)C(=O)O)cc1` ; field requested: (Q) 1H NMR, proportion NMR silent, cation
Response given: 0

----------
protocol: metabolic stability in liver microsomes
Assay type: in vitro ADME, rat
recorded conditions: rat, +Cofactors, 5 min
value type: Remaining percentage (%)
The answer is to be given in %; state only the numeric part.

Challenge: Query (molecule): O=C(O)CC[C@H](NC(=O)Nc1ccc(C(F)(F)F)cc1)C(=O)O [SSA 1] ; field requested: Remaining percentage
Response given: 96.56

Challenge: Query (molecule): O=C(O)CC[C@H](NC(=O)Nc1ccc(Br)cc1)C(=O)O [SSA 9] ; field requested: Remaining percentage
Response given: 97.95

Challenge: Query (molecule): O=C(O)CC[C@@H](NC(=O)Nc1ccc(C(F)(F)F)cc1)C(=O)O [SSA 3] ; field requested: Remaining percentage
Response given: 95.07

Challenge: Query (molecule): O=C(O)CC[C@H](NC(=O)Nc1ccc(C(F)(F)F)cc1)C(=O)O [SSA 2] ; field requested: Remaining percentage
Response given: 95.53

----------
protocol: metabolic stability in liver microsomes
Type: in vitro ADME, mouse
recorded conditions: mouse, liver microsomes; read-out: Scale-up CLint
Record form. Attribute: CLint scaled at 1 µM. Fill in for each entry.

Challenge: Query (compound): O=C(O)CC[C@H](NC(=O)Nc1ccc(C(F)(F)F)cc1)C(=O)O [SSA 1] ; field requested: CLint scaled at 1 µM
Response given: < 31 mL/min/kg

Challenge: Query (compound): O=C(O)CC[C@@H](NC(=O)Nc1ccc(C(F)(F)F)cc1)C(=O)O [SSA 3] ; field requested: CLint scaled at 1 µM
Response given: < 31 mL/min/kg

Challenge: Query (compound): O=C(O)CC[C@H](NC(=O)Nc1ccc(Br)cc1)C(=O)O [SSA 9] ; field requested: CLint scaled at 1 µM
Response given: < 31 mL/min/kg

----------
protocol: bi-directional permeability in Caco-2 cell line
Type: in vitro ADME, human
recorded conditions: human, Caco-2, pH 7.4, Caco-2; read-out: Recovery (%) BL-AP
Record form. Attribute: recovery at 2 h. Fill in for each entry.
The answer is to be given in %; state only the numeric part.

Challenge: Query (compound): `O=C(O)CC[C@H](NC(=O)Nc1ccc(C(F)(F)F)cc1)C(=O)O` ; field requested: recovery at 2 h
Response given: 89.7

Challenge: Query (compound): `O=C(O)CC[C@@H](NC(=O)Nc1ccc(C(F)(F)F)cc1)C(=O)O` ; field requested: recovery at 2 h
Response given: 87.4

Challenge: Query (compound): `O=C(O)CC[C@H](NC(=O)Nc1ccc(Br)cc1)C(=O)O` ; field requested: recovery at 2 h
Response given: 106

----------
protocol: protein binding in human plasma by equilibrium dialysis
Assay type: in vitro ADME
recorded conditions: human, plasma, human plasma, 5 µM, 6 hours, 37 °C; read-out: % Bound (converted)
Record form. Attribute: fraction unbound at 6 h, 5 µM. Fill in for each entry.
Form: value (number only, do not type unit).

Challenge: Query (compound): `O=C(O)CC[C@H](NC(=O)Nc1ccc(Br)cc1)C(=O)O` ; field requested: fraction unbound at 6 h, 5 µM
Response given: 0.166

Challenge: Query (compound): `O=C(O)CC[C@H](NC(=O)Nc1ccc(C(F)(F)F)cc1)C(=O)O` ; field requested: fraction unbound at 6 h, 5 µM
Response given: 0.217

Challenge: Query (compound): `O=C(O)CC[C@@H](NC(=O)Nc1ccc(C(F)(F)F)cc1)C(=O)O` ; field requested: fraction unbound at 6 h, 5 µM
Response given: 0.23

----------
Record form. Attribute: CLint scaled at 1 µM. Fill in for each entry.
protocol: metabolic stability in liver microsomes
Assay type: in vitro ADME, rat
recorded conditions: rat, liver microsomes; read-out: Scale-up CLint

Challenge: Query (molecule): `O=C(O)CC[C@@H](NC(=O)Nc1ccc(C(F)(F)F)cc1)C(=O)O` ; field requested: CLint scaled at 1 µM
Response given: < 18.3 mL/min/kg

Challenge: Query (molecule): `O=C(O)CC[C@H](NC(=O)Nc1ccc(C(F)(F)F)cc1)C(=O)O` ; field requested: CLint scaled at 1 µM
Response given: < 18.3 mL/min/kg

Challenge: Query (molecule): `O=C(O)CC[C@H](NC(=O)Nc1ccc(Br)cc1)C(=O)O` ; field requested: CLint scaled at 1 µM
Response given: < 18.3 mL/min/kg
